From: paper PMC7232442

- System: S. Typhimurium SE02 ΔacrB
- test description: Real-time ethidium bromide accumulation assay
- Assay type: cell-based, Salmonella enterica serovar Typhimurium
- condition info: S. Typhimurium SE02 ΔacrB; ½ MIC; minute 60
Classes based on Relative Fluorescence Index (RFI): bucket 1 = under 0.06, bucket 2 = from 0.06 up to 0.1, bucket 3 = 0.1 and over

{"molecule": "N#CC[Se]C(=O)c1cc(C(=O)[Se]CC#N)cc(C(=O)[Se]CC#N)c1", "experimental target": "S. Typhimurium SE02 ΔacrB", "label class": "bucket 1"}
{"molecule": "CC(=O)C[Se]C(=O)c1cccc(C(=O)[Se]CC(C)=O)c1", "experimental target": "S. Typhimurium SE02 ΔacrB", "label class": "bucket 3"}
{"molecule": "N#CCC[Se]C(=O)c1cccc(C(=O)[Se]CC#N)c1", "experimental target": "S. Typhimurium SE02 ΔacrB", "label class": "bucket 1"}
{"molecule": "COC(=O)C[Se]C(=O)c1cccc(C(=O)[Se]CC(=O)OC)c1 [Se-E2]", "experimental target": "S. Typhimurium SE02 ΔacrB", "label class": "bucket 3"}
{"molecule": "COC(=O)C[Se]C(=O)c1cc(C(=O)[Se]CC(=O)OC)cc(C(=O)[Se]CC(=O)OC)c1", "experimental target": "S. Typhimurium SE02 ΔacrB", "label class": "bucket 2"}
{"molecule": "COC(=O)C[Se]C(=O)c1ccc(C(=O)[Se]CC(=O)OC)cc1 [Se-E1]", "experimental target": "S. Typhimurium SE02 ΔacrB", "label class": "bucket 1"}
{"molecule": "CC(=O)C[Se]C(=O)c1cc(C(=O)[Se]CC(C)=O)cc(C(=O)[Se]CC(C)=O)c1", "experimental target": "S. Typhimurium SE02 ΔacrB", "label class": "bucket 2"}
{"molecule": "N#CC(C#N)=NNc1cccc(Cl)c1 [CCCP, reference compound]", "experimental target": "S. Typhimurium SE02 ΔacrB", "label class": "bucket 3"}
